These measurements were taken from patent US11884650B2.

Recorded Papp A→B at 2 h, 3 μM, one value per entry.
# method_notes: in vitro
# assay_setup: human, Caco-2, pH 7.4
Number first, unit second: that is the form wanted.

- molecule: "CCC(=O)c1cnc(NC(=O)C2CC2)cc1Nc1nccc(-c2cnn(C3CC3)n2)c1OC [Example 2]"
  readout_value: "18 ×10⁻⁶ cm/s"

The recorded Papp A→B at 2 h, 3 μM for CCC(=O)c1cnc(NC(=O)C2CC2)cc1Nc1ccc(F)c(-c2cnn(C)n2)c1OC [Example 4] is 54.5 ×10⁻⁶ cm/s

Papp A→B at 2 h, 3 μM recorded for this molecule, CCC(=O)c1cnc(NC(=O)C2CC2)cc1Nc1cccc(-c2cnn(C)n2)c1OC [Example 3] , is 18.3 ×10⁻⁶ cm/s

Value of Papp A→B at 2 h, 3 μM reported for the molecule CCC(=O)c1cnc(NC(=O)C2CC2)cc1Nc1nccc(-c2cnn(C)n2)c1OC [Example 1] is 66.3 ×10⁻⁶ cm/s

---

# method_notes: in vitro
# assay_setup: human, Caco-2, pH 7.4
metric: efflux ratio at 2 h, 3 μM
Write the value as a bare number.

Example entries begin here.
- smiles_representation: "CCC(=O)c1cnc(NC(=O)C2CC2)cc1Nc1nccc(-c2cnn(C)n2)c1OC"
  readout_value: 0.1
- smiles_representation: "CCC(=O)c1cnc(NC(=O)C2CC2)cc1Nc1cccc(-c2cnn(C)n2)c1OC"
  readout_value: 0.5
- smiles_representation: "CCC(=O)c1cnc(NC(=O)C2CC2)cc1Nc1ccc(F)c(-c2cnn(C)n2)c1OC"
  readout_value: 0.4

// moving on: another record for efflux ratio at 2 h, 3 μM
// recorded efflux ratio at 2 h, 3 μM for `CCC(=O)c1cnc(NC(=O)C2CC2)cc1Nc1nccc(-c2cnn(C3CC3)n2)c1OC` : 0.2

---

# method_notes: Brain Penetration In Vivo Assay
# Parameters: species or system C57BL6 wild-type mice
# assay_setup: C57BL6, brain and plasma, 10 mg/kg, mouse, 10 mpk, po, read-out: Ratio of exposure in brain to plasma
Parameter: Kp at 1 h. Scope: all listed entries.

Below are worked cases with known answers.
- molecule: "CCC(=O)c1cnc(NC(=O)C2CC2)cc1Nc1cccc(-c2cnn(C)n2)c1OC [Example 3]"
  Kp at 1 h: 3
- molecule: "CCC(=O)c1cnc(NC(=O)C2CC2)cc1Nc1nccc(-c2cnn(C)n2)c1OC [Example 1]"
  Kp at 1 h: 3.1
- molecule: "CCC(=O)c1cnc(NC(=O)C2CC2)cc1Nc1nccc(-c2ncn(C)n2)c1OC [A, reference compound]"
  Kp at 1 h: 0.14

Attention now shifts to the item below.
Briefly, Kp at 1 h measured for CCC(=O)c1cnc(NC(=O)C2CC2)cc1Nc1cccc(-c2ncn(C)n2)c1OC [B, reference compound] : 0.05
